Cited source for all entries: the supplement of paper PMC10567573

B1: ANKRD17 (parent)
chain: EMVRFLLEAGADQEHKTDEMHTAL

- Variants of: B1
- Protocol Details: protein stability index of a GFP-peptide fusion (GPS, HEK-293T) (PSI 1-6); higher = more stable;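 also: lentivirally expressed fusions sorted by FACS into six bins by GFP to DsRed ratio, PSI derived from sequencing read proportions per bin multiplied by bin number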
- Conditions Used: c terminus: a fixed tail appended
Measured protein stability index values are reported for all entries that follow.
Property Label: protein stability index

* E19C | 1.54
* H21V | 2.34
* A9H | 2.58
* M20W | 2.82
* K16T | 3.44
* F5T | 4.38
* H21E | 2.89
* E19W | 1.43
* F5I | 2.88
* E14R | 1.95
* R4W | 2.08
* L24T | 3.05
* D18E | 3.16
* R4I | 2.19
* A11Q | 2.58
* Q13P | 2.67
* Q13F | 2.11
* M20H | 2.79
* H15A | 2.76
* L6Y | 3.81
* A9M | 2.22
* E19L | 2.29
